System: HCC1569;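 further: TDF is a line of transformed human dermal fibroblasts of mesenchymal origin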
Test: H1.0 immunofluorescence intensity relative to DMSO (% of DMSO); higher = stronger H1.0 induction, active = 140 or more
Conditions: concentration: 10 µM; 24 h
READOUT NAME: H1.0 immunofluorescence intensity
One number for each entry.

# example entries with known answers
INSERT INTO results (molecule, readout_name, result_value) VALUES
  ('NC(=O)Nc1sc(-c2ccc(F)cc2)cc1C(N)=O', 'H1.0 immunofluorescence intensity', 177),
  ('CC1(C)CCCC2(C)C1CCC1(C)OC(=O)CC12 [(3aR)-(+)-Sclaerolide]', 'H1.0 immunofluorescence intensity', 84.9),
  ('COc1ccc2c3c1OC1CC(O)C=CC31CCN(C)C2 (stereo not given)', 'H1.0 immunofluorescence intensity', 94.8),
  ('CC1C(=O)CCC2C1(C)CCC1C2(C)CCC2(C)C3CC(C)(C)CCC3(C)CCC12C (stereo not given)', 'H1.0 immunofluorescence intensity', 87.8);

Now for another entry.
Give H1.0 immunofluorescence intensity for this entry on HCC1569: CCCCCCC=CCCCCCCCCCC(=O)O [11(Z)-Octadecenoic acid]
105

* * *

Tested on: TDF;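 further: TDF denotes transformed human dermal fibroblasts of mesenchymal origin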
Assay: cell number relative to DMSO (% of DMSO); higher = more cells (less growth inhibition / toxicity)
Conditions: concentration: 10 µM; 24 h
Fulfilled means recorded cell number is 100 or above; Not fulfilled means it is below 100.

INSERT INTO measurements (molecule, category_label) VALUES
  ('CSc1ccc2c(c1)N(CCC1CCCCN1C)c1ccccc1S2.Cl (stereo unspecified) [Thioridazine hydrochloride]', 'Not fulfilled'),
  ('COc1ccc2cc1Oc1ccc(cc1)CC1c3c(cc4c(c3Oc3cc5c(cc3OC)CCN(C)C5C2)OCO4)CCN1C (stereo unspecified)', 'Not fulfilled'),
  ('CCOC(=O)C1=C(COCCN)NC(C)=C(C(=O)OC)C1c1ccccc1Cl (stereo unspecified)', 'Fulfilled');

Has CN(C)c1nc(N(C)C)nc(N(C)C)n1 a recorded cell number greater than or equal to 100?
Fulfilled

Is cell number at least 100? Consider O=C(NC1=CNNC1=C1N=c2ccc(CN3CCOCC3)cc2=N1)NC1CC1
Not fulfilled

* * *

System: TDF;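 further: TDF denotes transformed human dermal fibroblasts of mesenchymal origin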
Assay: cell number relative to DMSO (% of DMSO); higher = more cells (less growth inhibition / toxicity)
Details: concentration: 10 µM; 24 h
Everything with cell number lower than 100 is 0 (no); everything else, including exactly 100, is 1 (yes).

Below, 6 molecules whose answers are already recorded.
INSERT INTO measurements (molecule, category_label) VALUES
  ('C=C1C(=O)OC2C1CCC(C)=CCCC1(C)OC21 (configuration not stated) [Parthenolide]', '0 (no)'),
  ('O.O=c1c(O)c(-c2ccc(O)cc2O)oc2cc(O)cc(O)c12', '0 (no)'),
  ('CC(=O)O.NC(=NCCCC(N)C(=O)O)NO [NG-Hydroxy-L-arginine acetate]', '1 (yes)'),
  ('OC(CS)C(O)CS (configuration not stated)', '1 (yes)'),
  ('CN1C(C(=O)Nc2ccccn2)=C(O)c2sccc2S1(=O)=O', '0 (no)'),
  ('CCCCNC(=O)NS(=O)(=O)c1ccc(C)cc1 [Tolbutamide]', '1 (yes)');

Textbook exercise: given the entry CCCCCCCCC=CCCCCCCCC(=O)NCCO , state whether its cell number is greater than or equal to 100.
1 (yes)

State whether the measured cell number reaches 100, counting equality as reaching it, for CN1CCN(CCCN2c3ccccc3Sc3ccc(Cl)cc32)CC1.O=C(O)C=CC(=O)O.O=C(O)C=CC(=O)O [Prochlorperazine dimaleate]
1 (yes)

Kindly determine if cell number recorded for COc1ccc2c(c1)c(CC(=O)O)c(C)n2Cc1ccc(F)cc1 is above or exactly 100.
0 (no)

Does the molecule CCc1cc(CCC2(C3CCCC3)CC(O)=C(Cc3nc4nc(C)cc(C)n4n3)C(=O)O2)cc(CC)n1 (configuration not stated) have recorded cell number that is 100 or more?
1 (yes)

Confirm if cell number reported for the molecule CCN(CC)CCNC(=O)c1ccc(NC(C)=O)cc1.Cl [N-Acetylprocainamide hydrochloride] is 100 or above.
1 (yes)
